Listed here: items and their measured TGI.
Tested on: HS 578T breast
Assay Explanation: NCI tumour cell line growth inhibition, 48 h
Write the number in µM without appending the unit.

Task item: Find the recorded TGI belonging to Cc1noc(C)c1-c1cc(O)cc(C(O)c2ccccc2)c1 (stereo not given) and report it.
Reply: 90.7

Task item: Find the recorded TGI belonging to O=C(Nc1ccc(Oc2ccc3nc(NC(=O)c4ccccc4)[nH]c3c2)cc1)Nc1cc(C(F)(F)F)ccc1F and report it.
Reply: 11.6

----------
System: A549 NSCLC
Assay Explanation: NCI tumour cell line growth inhibition, 48 h
Endpoint Label: TGI

Compound	TGI
CC(C)(C)CC(C)(C)c1cc2c(O)c(c1)Cc1cc(C(C)(C)CC(C)(C)C)cc(c1O)Cc1cc(C(C)(C)CC(C)(C)C)cc(c1O)Cc1cc(C(C)(C)CC(C)(C)C)cc(c1O)Cc1cc(C(C)(C)CC(C)(C)C)cc(c1O)Cc1cc(C(C)(C)CC(C)(C)C)cc(c1O)C2	> 100 µM

Next up:
Task item: Find the recorded TGI belonging to COc1ccc(-c2nn(-c3cccc(NC(=O)c4ccc5c(c4)OCCO5)c3)cc2-c2ccncc2)cc1Cl and report it.
Reply: 77.5 µM

----------
Listed here: items and their measured TGI.
Test system: IGROV1 ovarian
Assay Explanation: NCI tumour cell line growth inhibition, 48 h

Molecule	Measurement Target	Reported
O=C1C2=Nc3ccccc3C(O)N2c2ccccc21 (stereo not given)	IGROV1 ovarian	> 100 µM
CC1(C)CC(=O)C2=C(C1)S/C(=C1/SC3=C(S1)C(=O)CC(C)(C)C3)S2	IGROV1 ovarian	> 251 µM
COc1cc(-c2cc(=O)c3c(O)c(OC)c(OC)c(OC)c3o2)ccc1O	IGROV1 ovarian	37.2 µM

Task item: Find the recorded TGI belonging to CN1CCN(Cc2ccc(NC(=O)c3cncc(C#Cc4cncc5ncccc45)c3)cc2C(F)(F)F)CC1 and report it.
Reply: 7.45 µM

Task item: Find the recorded TGI belonging to O=C(N/C(=C\c1cccc([N+](=O)[O-])c1)c1nc2[nH]c(=S)[nH]c(=O)c2[nH]1)c1ccccc1 and report it.
Reply: > 100 µM

Task item: Find the recorded TGI belonging to O=c1c2ccccc2n2n1CC(O)C2 (stereo not given) and report it.
Reply: > 100 µM

Task item: Find the recorded TGI belonging to COc1cc(N/N=C/C#N)cc(OC)c1OC and report it.
Reply: > 10 µM

Task item: Find the recorded TGI belonging to CCOC(=O)Nc1cc2c(c(N)n1)N=C(c1ccccc1)[C@H](C)N2 and report it.
Reply: > 100 µM

Task item: Find the recorded TGI belonging to O=C(CC(C(=O)c1ccco1)c1cccs1)c1cccs1 (stereo not given) and report it.
Reply: > 100 µM

Task item: Find the recorded TGI belonging to COc1ccc2nc3cc(Cl)ccc3c(N3CCN(c4ccnc(N5CCOCC5)n4)CC3)c2c1 and report it.
Reply: > 100 µM

----------
Listed here: items and their measured TGI.
Test system: RXF 393 renal
Assay Explanation: NCI tumour cell line growth inhibition, 48 h

Compound	Measurement Target	Reported
O=C(N/C(=C\c1cccc([N+](=O)[O-])c1)c1nc2[nH]c(=S)[nH]c(=O)c2[nH]1)c1ccccc1	RXF 393 renal	> 100 µM
CCOC(=O)C1=C(C)OC(=O)[C@@]2(OC)C=C(Cl)[C@@]12C	RXF 393 renal	> 100 µM
CCOP(=O)(OCC)C(N)Cc1ccc(OC)c(OC)c1 (stereo not given)	RXF 393 renal	> 100 µM
C/C(=C\C1=C(Cl)C(=O)c2ccccc2C1=O)C(=O)O	RXF 393 renal	33.1 µM
C=CCn1c(C23CC4CC(CC(C4)C2)C3)n[nH]c1=S	RXF 393 renal	> 100 µM
Cc1noc(C)c1-c1cc(O)cc(C(O)c2ccccc2)c1 (stereo not given)	RXF 393 renal	> 100 µM
Cc1nn(C(=O)c2ccc(Cl)cc2)c2c1C(c1cccc([N+](=O)[O-])c1)SC(N)=N2 (stereo not given)	RXF 393 renal	> 10 µM
Cc1c(C(=O)C/C(=N/NC(=O)C[n+]2ccccc2)C(=O)Nc2ccccc2)[n+](=O)c2ccccc2n1O	RXF 393 renal	> 100 µM
NNC(=S)N/N=C(/C(=O)Nc1cc(Cl)ccc1Cl)C1C(=O)Nc2ccccc2S1=O (stereo not given)	RXF 393 renal	> 100 µM

Next up:
Task item: Find the recorded TGI belonging to CN[C@@H](C)[C@@H](N)c1ccccc1 and report it.
Reply: > 100 µM
